System: GST-Co-NF-kB (Capsaspora owczarzaki, UniProt F1ARL5 200-546)
Sequence: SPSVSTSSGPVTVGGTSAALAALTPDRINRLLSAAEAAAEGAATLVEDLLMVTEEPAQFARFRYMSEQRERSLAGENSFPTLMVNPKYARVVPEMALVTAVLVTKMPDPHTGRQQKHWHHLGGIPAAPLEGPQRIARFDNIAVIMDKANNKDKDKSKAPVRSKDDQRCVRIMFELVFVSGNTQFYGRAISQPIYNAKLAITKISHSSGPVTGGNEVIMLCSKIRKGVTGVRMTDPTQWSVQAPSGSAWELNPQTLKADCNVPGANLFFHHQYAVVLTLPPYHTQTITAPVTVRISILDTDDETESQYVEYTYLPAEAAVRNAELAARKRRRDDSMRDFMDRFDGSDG
Test method notes: protein-binding microarray (PBM); PBM: ~300 nM protein, 6 mM HEPES pH 7.8, 80 mM KCl, 0.5 mM EDTA, 0.5 mM EGTA, 6% glycerol, 35 ng/ul poly-dIdC, 1% milk, 1 h, room temperature; high values mean tight binding
Test conditions: dsDNA, one strand shown
Item-by-item account of binding signal
Form entry: value (z-score) — number only.

(Q) Quick check: binding signal of `CCGATTAACATCAGGATCTTCCCTGATGTTAATCGGGTCTTGATTCGCTTGACGCTGCTG` ?
(A) 1.18

(Q) Quick check: binding signal of `CCGATTAACATCAGGGAATTGCATGATGTTAATCGGGTCTTGATTCGCTTGACGCTGCTG` ?
(A) 2.6

====

Item-by-item account of binding signal
System: GST-Dm-Relish (Drosophila melanogaster, UniProt Q94527 99-473)
Sequence: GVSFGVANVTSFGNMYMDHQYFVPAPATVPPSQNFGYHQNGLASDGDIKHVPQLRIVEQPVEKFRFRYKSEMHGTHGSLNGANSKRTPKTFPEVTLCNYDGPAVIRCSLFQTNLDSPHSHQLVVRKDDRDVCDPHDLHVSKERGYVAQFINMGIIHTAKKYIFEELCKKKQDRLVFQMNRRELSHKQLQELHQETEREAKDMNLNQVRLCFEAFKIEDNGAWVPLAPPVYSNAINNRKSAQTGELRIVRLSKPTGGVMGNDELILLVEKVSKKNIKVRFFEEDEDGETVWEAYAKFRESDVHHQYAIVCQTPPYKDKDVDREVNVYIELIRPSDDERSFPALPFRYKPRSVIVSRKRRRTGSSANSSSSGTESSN
Test method notes: protein-binding microarray (PBM); PBM: ~300 nM protein, 6 mM HEPES pH 7.8, 80 mM KCl, 0.5 mM EDTA, 0.5 mM EGTA, 6% glycerol, 35 ng/ul poly-dIdC, 1% milk, 1 h, room temperature; high values mean tight binding
Test conditions: dsDNA, one strand shown
Form entry: value (z-score) — number only.

Solved entries (count: 2):
| Seq text | Property label | Unit annotation | Observed |
| --- | --- | --- | --- |
| CCGATTAACATCAAAAATCCCTATGATGTTAATCGGGTCTTGATTCGCTTGACGCTGCTG | binding signal | z-score | 6.49 |
| CCGATTAACATCACCCCCTCCCCTGATGTTAATCGGGTCTTGATTCGCTTGACGCTGCTG | binding signal | z-score | 5.21 |

Kindly consider the entry below.
(Q) Quick check: binding signal of `CCGATTAACATCAGGGGGAATCATGATGTTAATCGGGTCTTGATTCGCTTGACGCTGCTG` ?
(A) 6.2

====

System: GST-Aq-NF-kB (Amphimedon queenslandica, UniProt A9Y5G7 2-389)
Sequence: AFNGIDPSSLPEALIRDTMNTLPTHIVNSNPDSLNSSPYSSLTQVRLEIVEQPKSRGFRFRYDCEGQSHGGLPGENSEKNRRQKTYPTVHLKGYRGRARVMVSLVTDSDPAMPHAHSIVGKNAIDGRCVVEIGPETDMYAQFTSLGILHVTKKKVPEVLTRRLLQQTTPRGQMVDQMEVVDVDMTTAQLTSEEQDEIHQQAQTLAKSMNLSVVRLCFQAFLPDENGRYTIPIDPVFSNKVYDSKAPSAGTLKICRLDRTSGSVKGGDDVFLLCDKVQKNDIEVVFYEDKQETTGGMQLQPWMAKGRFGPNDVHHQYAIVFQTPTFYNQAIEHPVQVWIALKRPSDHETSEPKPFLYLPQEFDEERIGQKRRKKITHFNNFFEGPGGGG
Test method notes: protein-binding microarray (PBM); PBM: ~300 nM protein, 6 mM HEPES pH 7.8, 80 mM KCl, 0.5 mM EDTA, 0.5 mM EGTA, 6% glycerol, 35 ng/ul poly-dIdC, 1% milk, 1 h, room temperature; high values mean tight binding
Test conditions: dsDNA, one strand shown
Parameter threshold = 4 z-score. Response is Condition met when binding signal meets or exceeds it, else Condition not met.

| Seq text | System | Category label |
| --- | --- | --- |
| CCGATTAACATCAAAAATACCCATGATGTTAATCGGGTCTTGATTCGCTTGACGCTGCTG | GST-Aq-NF-kB (Amphimedon queenslandica, UniProt A9Y5G7 2-389) | Condition met |
| CCGATTAACATCAGGGAAGTACATGATGTTAATCGGGTCTTGATTCGCTTGACGCTGCTG | GST-Aq-NF-kB (Amphimedon queenslandica, UniProt A9Y5G7 2-389) | Condition not met |
| CCGATTAACATCACGGGCTTCCCTGATGTTAATCGGGTCTTGATTCGCTTGACGCTGCTG | GST-Aq-NF-kB (Amphimedon queenslandica, UniProt A9Y5G7 2-389) | Condition met |
| CCGATTAACATCACTGGGAAAACTGATGTTAATCGGGTCTTGATTCGCTTGACGCTGCTG | GST-Aq-NF-kB (Amphimedon queenslandica, UniProt A9Y5G7 2-389) | Condition not met |
| CCGATTAACATCACTGGAATTCCTGATGTTAATCGGGTCTTGATTCGCTTGACGCTGCTG | GST-Aq-NF-kB (Amphimedon queenslandica, UniProt A9Y5G7 2-389) | Condition not met |

(Q) Does `CCGATTAACATCAGTCCCACAGATGATGTTAATCGGGTCTTGATTCGCTTGACGCTGCTG` have a reported binding signal of at least 4 z-score?
(A) Condition not met

(Q) Does `CCGATTAACATCAAAATACTCCCTGATGTTAATCGGGTCTTGATTCGCTTGACGCTGCTG` have a reported binding signal of at least 4 z-score?
(A) Condition met

(Q) Does `CCGATTAACATCAAATCCCCCCCTGATGTTAATCGGGTCTTGATTCGCTTGACGCTGCTG` have a reported binding signal of at least 4 z-score?
(A) Condition met

(Q) Does `CCGATTAACATCAGGGGGAACGATGATGTTAATCGGGTCTTGATTCGCTTGACGCTGCTG` have a reported binding signal of at least 4 z-score?
(A) Condition met

(Q) Does `CCGATTAACATCAGGGGATTGGATGATGTTAATCGGGTCTTGATTCGCTTGACGCTGCTG` have a reported binding signal of at least 4 z-score?
(A) Condition not met

====

System: GST-Nv-NF-kB (Ser allele) (Nematostella vectensis, UniProt A7UNT2 2-411)
Sequence: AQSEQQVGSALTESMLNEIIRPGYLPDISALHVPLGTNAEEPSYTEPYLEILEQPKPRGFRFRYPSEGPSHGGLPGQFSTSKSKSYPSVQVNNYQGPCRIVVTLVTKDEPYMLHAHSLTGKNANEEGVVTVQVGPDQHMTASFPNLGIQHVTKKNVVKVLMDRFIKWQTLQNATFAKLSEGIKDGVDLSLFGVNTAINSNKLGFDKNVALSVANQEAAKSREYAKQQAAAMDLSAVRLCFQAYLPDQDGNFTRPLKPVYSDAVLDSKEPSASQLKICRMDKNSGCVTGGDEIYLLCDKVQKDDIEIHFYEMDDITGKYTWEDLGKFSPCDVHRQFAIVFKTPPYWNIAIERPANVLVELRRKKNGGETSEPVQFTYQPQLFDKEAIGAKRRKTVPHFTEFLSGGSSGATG
Test method notes: protein-binding microarray (PBM); PBM: ~300 nM protein, 6 mM HEPES pH 7.8, 80 mM KCl, 0.5 mM EDTA, 0.5 mM EGTA, 6% glycerol, 35 ng/ul poly-dIdC, 1% milk, 1 h, room temperature; Ap Aiptasia and Nv Nematostella (sea anemones) / Co Capsaspora / Aq Amphimedon (sponge) / Dm Drosophila / Hu human; RHD is the Rel homology domain; high values mean tight binding
Test conditions: dsDNA, one strand shown
Item-by-item account of binding signal
Form entry: value (z-score) — number only.

Solved entries (count: 5):
| Seq text | binding signal [z-score] |
| --- | --- |
| CCGATTAACATCAGGATTATCCCTGATGTTAATCGGGTCTTGATTCGCTTGACGCTGCTG | 1.47 |
| CCGATTAACATCACGGGATTTTCTGATGTTAATCGGGTCTTGATTCGCTTGACGCTGCTG | 4.15 |
| CCGATTAACATCACTATATCCCCTGATGTTAATCGGGTCTTGATTCGCTTGACGCTGCTG | 5.9 |
| CCGATTAACATCAGGGGATTGTATGATGTTAATCGGGTCTTGATTCGCTTGACGCTGCTG | 8.67 |
| CCGATTAACATCAGGGGAAAGAATGATGTTAATCGGGTCTTGATTCGCTTGACGCTGCTG | 8.18 |

(Q) Quick check: binding signal of `CCGATTAACATCAGGAAGTCCCCTGATGTTAATCGGGTCTTGATTCGCTTGACGCTGCTG` ?
(A) 6.92

(Q) Quick check: binding signal of `CCGATTAACATCAAAATTACCCATGATGTTAATCGGGTCTTGATTCGCTTGACGCTGCTG` ?
(A) 4.25

(Q) Quick check: binding signal of `CCGATTAACATCACTATTCCCCCTGATGTTAATCGGGTCTTGATTCGCTTGACGCTGCTG` ?
(A) 7.08

Data provenance: paper PMC5700166
